# reported %-inhibition, AurA; entries follow
# TARGET: panel of more than 300 wild-type and mutant kinases (313 kinase panel) (Homo sapiens)
# TEST SUMMARY: Kinase profiling in a biochemical assay panel (mobility shift assays and ELISA), %-inhibition at 1 μM; selectivity entropy
# CONDITION LABEL: kinase AurA; 1 μM compound
Just the number in %, nothing appended.

Completed entries (count: 5):
State the recorded %-inhibition, AurA for this entry: "Cc1cn(-c2cc(NC(=O)c3ccc(C)c(Nc4nccc(-c5cccnc5)n4)c3)cc(C(F)(F)F)c2)cn1" -5.43

May I ask what %-inhibition, AurA has been recorded for "CCCS(=O)(=O)Nc1ccc(F)c(C(=O)c2c[nH]c3ncc(-c4ccc(Cl)cc4)cc23)c1F" ? 23

Requested read-out: %-inhibition, AurA. Entry: "CNC(=O)c1cc(Oc2ccc(NC(=O)Nc3ccc(Cl)c(C(F)(F)F)c3)c(F)c2)ccn1" 7

Please give the measured %-inhibition, AurA for this compound: "O=S(=O)(c1cccc2cnccc12)N1CCCNCC1" -2

# query: %-inhibition, AurA of entry "CO[C@H]1C[C@@H]2CC[C@@H](C)[C@@](O)(O2)C(=O)C(=O)N2CCCC[C@H]2C(=O)O[C@H]([C@H](C)C[C@@H]2CC[C@@H](OCCO)[C@H](OC)C2)CC(=O)[C@H](C)/C=C(\C)[C@@H](O)[C@@H](OC)C(=O)[C@H](C)C[C@H](C)/C=C/C=C/C=C/1C" 3.74

***
Recorded %-inhibition, AurA of "CCN(CC)CCNC(=O)c1c(C)[nH]c(/C=C2\C(=O)Nc3ccc(F)cc32)c1C" , please. 81

Report %-inhibition, AurA for COc1cc2nccc(Oc3ccc(NC(=O)C4(C(=O)Nc5ccc(F)cc5)CC4)cc3)c2cc1OC [cabozantinib] please. 54

Looking for the measured %-inhibition, AurA of "CO[C@H]1C[C@@H]2CC[C@@H](C)[C@@](O)(O2)C(=O)C(=O)N2CCCC[C@H]2C(=O)O[C@H]([C@H](C)C[C@@H]2CC[C@@H](OC(=O)C(C)(CO)CO)[C@H](OC)C2)CC(=O)[C@H](C)/C=C(\C)[C@@H](O)[C@@H](OC)C(=O)[C@H](C)C[C@H](C)/C=C/C=C/C=C/1C" , can you help? -12

Find the recorded %-inhibition, AurA belonging to "CC(=O)Nc1cccc(-n2c(=O)n(C3CC3)c(=O)c3c(Nc4ccc(I)cc4F)n(C)c(=O)c(C)c32)c1" and report it. -2

What value of %-inhibition, AurA has been recorded for this entry: "CS(=O)(=O)CCNCc1ccc(-c2ccc3ncnc(Nc4ccc(OCc5cccc(F)c5)c(Cl)c4)c3c2)o1" 5.59

Which %-inhibition, AurA reading was recorded for the compound "Cc1ccc(C(=O)Nc2ccc(CN3CCN(C)CC3)c(C(F)(F)F)c2)cc1C#Cc1cnc2cccnn12" ? 9
